- ASSAYED SYSTEM: soluble guanylate cyclase (sGC) (Rattus norvegicus (Rat), UniProt P20595)
- Sequence (P20595 whole entry): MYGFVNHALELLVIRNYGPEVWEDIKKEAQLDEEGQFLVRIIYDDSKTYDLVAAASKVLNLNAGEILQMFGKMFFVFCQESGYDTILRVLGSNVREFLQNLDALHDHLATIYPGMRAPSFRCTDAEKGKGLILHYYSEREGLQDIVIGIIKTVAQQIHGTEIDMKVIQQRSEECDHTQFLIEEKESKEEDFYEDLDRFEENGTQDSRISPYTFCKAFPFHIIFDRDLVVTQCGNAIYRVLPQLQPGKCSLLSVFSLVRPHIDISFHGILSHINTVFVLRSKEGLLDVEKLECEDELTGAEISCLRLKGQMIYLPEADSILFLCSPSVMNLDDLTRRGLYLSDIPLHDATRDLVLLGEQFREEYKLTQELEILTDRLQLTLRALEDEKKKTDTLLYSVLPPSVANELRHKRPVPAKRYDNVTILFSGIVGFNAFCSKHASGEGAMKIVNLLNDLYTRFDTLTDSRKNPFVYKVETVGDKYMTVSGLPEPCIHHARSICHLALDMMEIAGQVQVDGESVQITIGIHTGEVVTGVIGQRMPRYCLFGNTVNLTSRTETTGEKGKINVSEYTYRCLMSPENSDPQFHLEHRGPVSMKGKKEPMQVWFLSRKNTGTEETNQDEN
- Sequence (P19686 whole entry partner): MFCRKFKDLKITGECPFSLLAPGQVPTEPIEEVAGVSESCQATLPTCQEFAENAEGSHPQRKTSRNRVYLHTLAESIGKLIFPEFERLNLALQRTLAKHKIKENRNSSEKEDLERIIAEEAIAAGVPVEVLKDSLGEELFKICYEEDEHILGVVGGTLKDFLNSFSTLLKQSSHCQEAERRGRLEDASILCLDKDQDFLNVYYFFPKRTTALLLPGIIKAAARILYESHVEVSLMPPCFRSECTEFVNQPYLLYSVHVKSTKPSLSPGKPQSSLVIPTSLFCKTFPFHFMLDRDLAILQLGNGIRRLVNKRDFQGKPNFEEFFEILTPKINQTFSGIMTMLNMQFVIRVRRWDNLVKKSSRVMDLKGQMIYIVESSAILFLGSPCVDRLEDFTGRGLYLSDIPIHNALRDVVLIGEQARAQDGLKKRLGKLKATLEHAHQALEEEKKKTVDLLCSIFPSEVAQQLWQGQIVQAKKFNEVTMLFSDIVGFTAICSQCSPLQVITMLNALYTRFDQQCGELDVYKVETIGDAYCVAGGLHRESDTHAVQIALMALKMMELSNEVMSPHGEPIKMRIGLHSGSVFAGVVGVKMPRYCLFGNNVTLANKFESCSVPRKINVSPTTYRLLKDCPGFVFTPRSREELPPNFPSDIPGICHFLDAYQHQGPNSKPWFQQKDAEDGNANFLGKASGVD
- PROTOCOL DETAILS: Stimulation of sGC enzyme activity (PPi detection, luciferase)
- EXPERIMENTAL PARAMETERS: sGC enzyme in vitro; read-out: EC50 (concentration at 50% of maximum efficacy), activating action at the sGC enzyme
MEASURE NAME: EC50 (nM)
// units = nM; emit number, no label

Below, each entry is followed by its recorded EC50 result.
COMPOUND: CC(C)C(CC(=O)O)c1ccc(Cl)c(NC(=O)[C@H](c2ccc(C(C)(C)C)cc2)[C@@H](C)C(F)(F)F)c1 (stereo partly drawn)
EC50 (nM): 8.4
--
COMPOUND: C[C@H]([C@H](C(=O)Nc1cc(C(C)(CC(=O)O)C2CCC2)ccc1Cl)c1ccc(Cl)cc1)C(F)(F)F (single isomer, unassigned) [Example 6]
EC50 (nM): 56

Ask: Which EC50 is listed for CC(C)C(CC(=O)O)c1ccc(Cl)c(NC(=O)[C@H](c2ccc(C3CC3(F)F)cc2)[C@@H](C)C(F)(F)F)c1 (stereo partly drawn) ?
Reply: 14

Ask: Which EC50 is listed for C[C@H]([C@H](C(=O)Nc1cc(C(CC(=O)O)C2CCC2)ccc1Cl)c1ccc(Cl)cc1)C(F)(F)F (single isomer, unassigned; (+)) ?
Reply: 11

Ask: Which EC50 is listed for CC(C(=O)O)C(c1ccc(Cl)c(NC(=O)C(c2ccc(Cl)cc2)[C@@H](C)C(F)(F)F)c1)C1CC1 (stereo partly drawn) ?
Reply: 640

Ask: Which EC50 is listed for CC(C)C(CC(=O)O)c1ccc(Cl)c(NC(=O)[C@H](c2ccc(Cl)cc2)[C@@H](C)C(F)(F)F)c1 (single isomer, unassigned; (+)) [Example 2] ?
Reply: 89

----------
- ASSAYED SYSTEM: soluble guanylate cyclase (sGC) (Rattus norvegicus (Rat))
- PROTOCOL DETAILS: Stimulation of sGC enzyme activity (PPi detection, luciferase)
- Assay type: biochemical
- EXPERIMENTAL PARAMETERS: sGC enzyme in vitro
Listed here: items and their measured MEC (minimum effective concentration), activating action at the sGC enzyme.
// units = nM; emit number, no label

COMPOUND: CC(C)C(CC(=O)O)c1ccc(Cl)c(NC(=O)[C@H](c2ccc(Cl)cc2)[C@@H](C)C(F)(F)F)c1 (single isomer, unassigned; (+)) [Example 1]
MEAS VALUE: 1
//
COMPOUND: C[C@H]([C@H](C(=O)Nc1cc(C(CC(=O)O)C2(F)CC2)ccc1Cl)c1ccc(Cl)cc1)C(F)(F)F (stereo partly drawn)
MEAS VALUE: 1.7
//
COMPOUND: CC(C)C(CC(=O)O)c1ccc(Cl)c(NC(=O)[C@H](c2ccc(Cl)cc2)[C@@H](C)C(F)(F)F)c1 (single isomer, unassigned; (+)) [Example 2]
MEAS VALUE: 4

Ask: Which MEC (minimum effective concentration), activating action at the sGC enzyme is listed for C[C@H]([C@H](C(=O)Nc1cc(C(C)(CC(=O)O)C2CCC2)ccc1Cl)c1ccc(Cl)cc1)C(F)(F)F (single isomer, unassigned) [Example 6] ?
Reply: 1.1

Ask: Which MEC (minimum effective concentration), activating action at the sGC enzyme is listed for CC(C(=O)O)C(c1ccc(Cl)c(NC(=O)C(c2ccc(Cl)cc2)[C@@H](C)C(F)(F)F)c1)C1CC1 (stereo partly drawn) ?
Reply: 1.7

Ask: Which MEC (minimum effective concentration), activating action at the sGC enzyme is listed for CC(C)C(CC(=O)O)c1ccc(Cl)c(NC(=O)[C@H](c2ccc(C3CC3(F)F)cc2)[C@@H](C)C(F)(F)F)c1 (stereo partly drawn) ?
Reply: 0.5

Ask: Which MEC (minimum effective concentration), activating action at the sGC enzyme is listed for COC(C)(C)C(CC(=O)O)c1ccc(Cl)c(NC(=O)[C@H](c2ccc(Cl)cc2)[C@@H](C)C(F)(F)F)c1 (stereo partly drawn) ?
Reply: 5.1

Ask: Which MEC (minimum effective concentration), activating action at the sGC enzyme is listed for CC(C)c1ccc([C@@H](C(=O)Nc2cc(C(CC(=O)O)C(C)C)ccc2Cl)[C@@H](C)C(F)(F)F)cc1 (stereo partly drawn) ?
Reply: 0.5

Ask: Which MEC (minimum effective concentration), activating action at the sGC enzyme is listed for CC(C)C(C)(CC(=O)O)c1ccc(Cl)c(NC(=O)[C@H](c2ccc(Cl)cc2)[C@@H](C)C(F)(F)F)c1 (single isomer, unassigned) [Example 3] ?
Reply: 1
